Values compiled from patent US11040035B2.

Item-by-item account of IC50
Biological target: AHR (Homo sapiens, UniProt P35869)
Sequence (P35869 11-848): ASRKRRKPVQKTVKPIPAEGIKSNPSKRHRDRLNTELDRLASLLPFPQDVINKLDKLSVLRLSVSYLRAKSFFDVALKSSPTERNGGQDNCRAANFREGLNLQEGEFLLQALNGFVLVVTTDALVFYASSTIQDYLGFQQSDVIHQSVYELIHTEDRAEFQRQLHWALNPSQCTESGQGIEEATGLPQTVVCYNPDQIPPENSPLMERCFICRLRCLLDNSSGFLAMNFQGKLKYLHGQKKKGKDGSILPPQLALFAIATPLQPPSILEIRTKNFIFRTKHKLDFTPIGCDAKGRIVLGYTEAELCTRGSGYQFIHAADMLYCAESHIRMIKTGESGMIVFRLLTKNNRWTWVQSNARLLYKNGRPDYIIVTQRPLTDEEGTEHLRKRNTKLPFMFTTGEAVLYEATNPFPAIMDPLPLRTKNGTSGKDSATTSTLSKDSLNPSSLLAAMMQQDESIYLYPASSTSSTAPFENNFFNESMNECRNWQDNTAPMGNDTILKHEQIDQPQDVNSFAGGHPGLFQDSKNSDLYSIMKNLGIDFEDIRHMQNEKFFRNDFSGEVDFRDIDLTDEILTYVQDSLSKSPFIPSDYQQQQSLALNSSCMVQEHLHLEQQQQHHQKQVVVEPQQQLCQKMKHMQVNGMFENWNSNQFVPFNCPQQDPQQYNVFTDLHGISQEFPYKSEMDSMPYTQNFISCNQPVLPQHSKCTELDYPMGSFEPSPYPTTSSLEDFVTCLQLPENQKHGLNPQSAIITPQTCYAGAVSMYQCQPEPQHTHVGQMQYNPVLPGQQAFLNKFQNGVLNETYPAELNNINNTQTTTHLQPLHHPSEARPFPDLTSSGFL
Assay: In vitro assay 1: antagonism in human cell line (transactivation assay, kynurenic acid prestimulated)
Details: Assay 1: AHR-luc Hum Antagonism IC50 [M], 150 μM kynurenic acid, 20 hours, firefly luciferase
outcome measure: IC50 (M)

{"compound": "O=C(NC(CO)C1CCCO1)c1cc(-c2ccc(Cl)cc2)nn(-c2cccc(F)c2)c1=O (racemic) [Example 230]", "value": "1.37e-07"}
{"compound": "CC(O)C(NC(=O)c1cc(-c2ccc(Cl)cc2)nn(-c2cccc(F)c2)c1=O)C(F)(F)F (single isomer, unassigned) [Example 199]", "value": "5.84e-07"}
{"compound": "C[C@H](O)[C@H](C)NC(=O)c1cc(-c2ccc(Cl)c(F)c2)nn(-c2cccc(F)c2)c1=O (relative stereo) [Example 290]", "value": "8.14e-08"}
{"compound": "O=C(NC(CO)C1CCOC1)c1cc(-c2ccc(Cl)c(F)c2)nn(-c2cccc(F)c2)c1=O (single isomer, unassigned) [Example 295]", "value": "8.3e-07"}
{"compound": "COC(=O)[C@H](CO)NC(=O)c1cc(-c2ccc(Cl)cc2)nn(-c2cccc(F)c2)c1=O [Example 153]", "value": "1.43e-07"}
{"compound": "O=C(N[C@H]1C[C@H](CO)C1)c1cc(-c2ccc(Cl)cc2)nn(-c2cccc(F)c2)c1=O [Example 396]", "value": "1.3e-07"}
{"compound": "O=C(N[C@H]1COCC[C@H]1O)c1cc(-c2ccc(Cl)cc2)nn(-c2cccc(F)c2)c1=O [Example 273]", "value": "4.31e-08"}
{"compound": "O=C(NCC1(O)COC1)c1cc(-c2ccc(Cl)cc2)nn(-c2cccc(F)c2)c1=O [Example 331]", "value": "7.87e-08"}
{"compound": "O=C(NC[C@@H](O)C(F)(F)F)c1cc(-c2ccc(Cl)c(Cl)c2)nn(-c2cccc(F)c2)c1=O (single isomer, unassigned) [Example 299]", "value": "7.42e-07"}
{"compound": "O=C(NCC(O)C(F)(F)F)c1cc(-c2ccc(Cl)cc2)nn(-c2cccc(F)c2)c1=O (stereo not shown) [Example 25]", "value": "3.75e-08"}
{"compound": "CCC(CO)NC(=O)c1cc(-c2ccc(C)c(C)c2)nn(-c2cccc(F)c2)c1=O (stereo not shown) [Example 85]", "value": "8.61e-08"}
{"compound": "Cc1ccc(-c2cc(C(=O)N[C@@H](C)CO)c(=O)n(-c3cccc(F)c3)n2)cc1C [Example 89]", "value": "1.15e-07"}
{"compound": "O=C(NC(CO)C1CCCO1)c1cc(-c2ccc(Cl)cc2)nn(-c2cccc(F)c2)c1=O (single isomer, unassigned) [Example 316]", "value": "3.7e-07"}
{"compound": "O=C(NC(CO)CCO)c1cc(-c2ccc(Cl)cc2)nn(-c2cccc(F)c2)c1=O (single isomer, unassigned; (+)) [Example 225]", "value": "2.41e-07"}
{"compound": "Cc1cccc(-n2nc(-c3ccc(Cl)cc3)cc(C(=O)NCC(O)C(F)(F)F)c2=O)c1 (single isomer, unassigned) [Example 368]", "value": "1.86e-06"}
{"compound": "O=C(NCC(O)C(F)(F)F)c1cc(-c2ccc(Cl)cc2)nn(-c2cc(F)cc(F)c2)c1=O (single isomer, unassigned) [Example 45]", "value": "1.02e-08"}
